- assay_procedure: yeast display, Sf9 membrane polyspecificity reagent, FACS + sequencing; frameworks hold sequencing errors

>  <biosequence>
QVQLVESGGGLVQAGGSLRLSCAASGRIFAPYAMGWYRQAPGKERELVAAITSGGSTNYADSVKGRFTISRDNAKNTVYVQMNSLKPEDTAVYYCAAEASYNYGKYVVTYDYWGQGTQVTVSS

>  <polyreactivity (PSR sort gate)>
high polyreactivity

$$$$
>  <biosequence>
QVQLVESGGGLVQAGGSLRLSFAASGLIFPSYTMGWYRQAPGNYGELVAGINSGGSTNYAESVMGRFTISRDIAKNTDYLQMNSQKAEHTAVYYCAKDNNYYWYVSPRDYWGQGTQVTVSS

>  <polyreactivity (PSR sort gate)>
low polyreactivity

$$$$
>  <biosequence>
QVQLVESGGGLVQAGGSLRLSCAASGRTSFNYTMGWYRQAPGKERELVAAITSGGDTYYADSVKGRFTISRDNAKNTVYLQMNSLKPEDTAVYYCNADPDFPSKFDDPYSYDYWGQGTQVNVSS

>  <polyreactivity (PSR sort gate)>
low polyreactivity

$$$$
>  <biosequence>
QVQLVESGGGLVQAGGSLRLSCAASGRTFYSNAMGWYRQAPGKERELVAAISRRGGRTYYADSVKGRFTISRDNAKNTVYLQMNSLKPEDTAVYYCAADAYLYQPEDYYYWGQGTQVTVSS

>  <polyreactivity (PSR sort gate)>
high polyreactivity

$$$$
>  <biosequence>
QVQLVESGGGLFQAGGSLRLSCAASGRIFAYYTMGWYIQAPGKERELVAAITKRGGSTYYADSVKGRFTISRDNAKNTFYLQMNSLKPEDTAVYYCAADPNRYRYRSPHDYWGQGTQVTVSS

>  <polyreactivity (PSR sort gate)>
high polyreactivity

$$$$
